# Target entity: MMP-14 (Homo sapiens)
# Construct: The catalytic domain enzyme was expressed in E. coli inclusion bodies, solubilized in urea; made in house
# Protocol description: In vitro MMP inhibition, Ki determination (fluorogenic substrate II)
# Format: biochemical
# Condition context: value not in parenthesis; read-out: MMP-14 Ki
Listed next: entries and their corresponding Ki.

- Molecule: "CCCCOc1ccc(N2CCN(S(=O)(=O)C3(C(=O)NO)CCN(CCOC)CC3)CC2)cn1"
  Ki: "8.88 µM"
- Molecule: "CCCCOc1ccc(N2CCN(S(=O)(=O)C3(C(=O)NO)CCN(C(=O)N4CCN(C)CC4)CC3)CC2)cc1"
  Ki: "2.51 µM"
- Molecule: "O=C(NO)C1(S(=O)(=O)N2CCN(c3ccc(OCC(F)(F)C(F)(F)F)cc3)CC2)CCOCC1"
  Ki: "5.63 µM"
- Molecule: "O=C(NO)C1(S(=O)(=O)N2CCN(c3ccc(OCc4ccccc4)cn3)CC2)CCOCC1"
  Ki: "0.454 µM"
- Molecule: "CCCCOc1ccc(N2CCN(S(=O)(=O)C3(C(=O)NO)CCN(C(=O)N4CCCC4)CC3)CC2)cc1"
  Ki: "1.53 µM"
- Molecule: "O=C(NO)C1(S(=O)(=O)N2CCN(c3ncccn3)CC2)CCOCC1 [Example 107]"
  Ki: "6 µM"
- Molecule: "CCCCOc1ccc(N2CCN(S(=O)(=O)C3(C(=O)NO)CCOCC3)CC2)nc1"
  Ki: "0.411 µM"
- Molecule: "CCCCOc1ccc(N2CCN(S(=O)(=O)C3(C(=O)NO)CCN(C(=S)N(C)C)CC3)CC2)cc1"
  Ki: "5.65 µM"

----------
# Target entity: MMP-2 (Homo sapiens, UniProt P08253)
# Construct: made in house; host or cells: MMP-2-transfected p2AHT2 cells
# Sequence (P08253 110-660): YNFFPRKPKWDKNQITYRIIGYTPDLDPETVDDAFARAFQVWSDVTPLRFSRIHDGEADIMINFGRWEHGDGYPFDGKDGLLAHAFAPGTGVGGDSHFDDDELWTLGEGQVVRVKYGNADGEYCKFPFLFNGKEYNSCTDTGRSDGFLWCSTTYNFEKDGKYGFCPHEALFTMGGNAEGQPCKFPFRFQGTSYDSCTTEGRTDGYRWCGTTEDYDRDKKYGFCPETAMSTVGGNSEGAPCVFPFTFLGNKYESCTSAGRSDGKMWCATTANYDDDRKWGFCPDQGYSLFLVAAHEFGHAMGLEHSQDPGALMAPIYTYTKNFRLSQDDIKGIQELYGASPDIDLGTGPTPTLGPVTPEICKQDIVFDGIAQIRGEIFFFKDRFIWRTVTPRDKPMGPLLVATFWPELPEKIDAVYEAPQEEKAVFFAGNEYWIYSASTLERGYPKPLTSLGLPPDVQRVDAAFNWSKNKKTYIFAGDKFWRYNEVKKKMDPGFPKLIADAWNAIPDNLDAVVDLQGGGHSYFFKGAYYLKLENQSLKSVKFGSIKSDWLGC
# Protocol description: In vitro MMP inhibition, Ki determination (fluorogenic substrate II)
# Format: biochemical
# Condition context: value not in parenthesis; read-out: MMP-2 Ki
pKi: −log10 of the molar value.
Measured pKi, listed per entry.
Measured attribute: pKi

- Compound: "O=C(NO)C1(S(=O)(=O)N2CCN(c3ccccn3)CC2)CCOCC1 [Example 169]"
  Target entity: "MMP-2 (Homo sapiens, UniProt P08253)"
  Measured result: 8.96
- Compound: "CCCCOc1ccc(N2CCN(S(=O)(=O)C3(C(=O)NO)CCN(c4ncccn4)CC3)CC2)cc1 [Example 159]"
  Target entity: "MMP-2 (Homo sapiens, UniProt P08253)"
  Measured result: 9.15
- Compound: "Cc1ccc(N2CCN(S(=O)(=O)C3(C(=O)NO)CCOCC3)CC2)nc1 [Example 138]"
  Target entity: "MMP-2 (Homo sapiens, UniProt P08253)"
  Measured result: 9.33
- Compound: "CCc1ccc(N2CCN(S(=O)(=O)C3(C(=O)NO)CCN(CCOC)CC3)CC2)cc1 [Example 193]"
  Target entity: "MMP-2 (Homo sapiens, UniProt P08253)"
  Measured result: 8.92
- Compound: "CC(C)(C)N1CCC(C(=O)NO)(S(=O)(=O)N2CCN(c3ccc(OCCCC(F)(F)F)cc3F)CC2)CC1 [Example 116]"
  Target entity: "MMP-2 (Homo sapiens, UniProt P08253)"
  Measured result: 8.37
- Compound: "CCCCOc1ccc(N2CCN(S(=O)(=O)C3(C(=O)NO)CCN(C(=O)OCC(C)(C)C)CC3)CC2)cc1 [Example 97]"
  Target entity: "MMP-2 (Homo sapiens, UniProt P08253)"
  Measured result: 8.17
- Compound: "O=C(NO)C1(S(=O)(=O)N2CCN(c3ccc(C(F)(F)F)cn3)CC2)CCOCC1 [Example 94]"
  Target entity: "MMP-2 (Homo sapiens, UniProt P08253)"
  Measured result: 9.18
- Compound: "CCCCc1ccc(C2CCN(S(=O)(=O)C3(C(=O)NO)CCN(CCOC)CC3)CC2)s1 [Example 55]"
  Target entity: "MMP-2 (Homo sapiens, UniProt P08253)"
  Measured result: 8.66

----------
# Target entity: MMP-2 (Homo sapiens)
# Construct: made in house; host or cells: MMP-2-transfected p2AHT2 cells
# Protocol description: In vitro MMP inhibition, Ki determination (fluorogenic substrate II)
# Type: biochemical
# Condition context: value not in parenthesis; read-out: MMP-2 Ki
pKi: −log10 of the molar value.

- Compound: "CCCCOc1ccc(N2CCN(S(=O)(=O)C3(C(=O)NO)CCN(C(=O)c4cccs4)CC3)CC2)cc1 [Example 160]"
  pKi: 9.22
- Compound: "CCCCc1ccc(N2CCN(S(=O)(=O)C(C)C(=O)NO)CC2)nc1 (stereo not shown) [Example 217]"
  pKi: 9.54
- Compound: "CCCCc1ccc(N2CCN(S(=O)(=O)C3(C(=O)NO)CCOCC3)CC2)c(F)c1 [Example 91]"
  pKi: 8.91
- Compound: "CC(C)CCc1ccc(N2CCN(S(=O)(=O)C3(C(=O)NO)CCOCC3)CC2)nc1 [Example 133]"
  pKi: 9.60

----------
# Target entity: MMP-2 (Homo sapiens, UniProt P08253)
# Construct: made in house; host or cells: MMP-2-transfected p2AHT2 cells
# Protocol description: In vitro MMP inhibition, Ki determination (fluorogenic substrate II)
# Type: biochemical
# Condition context: value not in parenthesis; read-out: MMP-2 Ki
# Procedure: Several hydroxamic acids and salts thereof were analyzed in in vitro assays to determine their ability to inhibit the MMP cleavage of peptide substrates. […] and IC50 constants were calculated from the assayed hydroxamic acid-MMP interactions. […] The assays from which the Ki determinations were made were performed as follows. […] In the absence of MMP inhibitory activity, substrate II was cleaved at the Gly-Leu bond resulting in an increase of relative fluorescence. […]
pKi: −log10 of the molar value.

- Compound structure string: "CCCCOc1ccc(N2CCN(S(=O)(=O)C3(C(=O)NO)CCN(C(=O)N(C(C)C)C(C)C)CC3)CC2)cc1"
  pKi: 8.80
- Compound structure string: "O=C(NO)C1(S(=O)(=O)N2CCN(c3ccc(SC(F)(F)F)cc3)CC2)CCN(Cc2ccccc2)CC1"
  pKi: 9.06
- Compound structure string: "CCCCCc1ccc(N2CCN(S(=O)(=O)C3(C(=O)NO)CCN(c4ccc(C)cc4)CC3)CC2)cc1"
  pKi: 7.69
- Compound structure string: "CCCCCc1ccc(N2CCN(S(=O)(=O)C3(C(=O)NO)CCN(S(=O)(=O)N(C)C)CC3)CC2)cc1"
  pKi: 8.59
- Compound structure string: "CC(C)Cc1ccc(N2CCN(S(=O)(=O)C3(C(=O)NO)CCOCC3)CC2)c(F)c1"
  pKi: 7.90
- Compound structure string: "O=C(NO)C1(S(=O)(=O)N2CCN(c3ccc(COCC(F)(F)C(F)(F)F)cc3)CC2)CCOCC1"
  pKi: 8.59
- Compound structure string: "CCCNC(=O)c1ccc(N2CCN(S(=O)(=O)C3(C(=O)NO)CCN(CCOC)CC3)CC2)cc1"
  pKi: 7.33
- Compound structure string: "CCCCOc1ccc(N2CCN(S(=O)(=O)C3(C(=O)NO)CCN(C(=O)N(CC)CC)CC3)CC2)cc1"
  pKi: 9.23
- Compound structure string: "COCCN1CCC(C(=O)NO)(S(=O)(=O)N2CCN(c3ccc(OCC(F)(F)C(F)(F)F)cc3)CC2)CC1"
  pKi: 9.16
- Compound structure string: "CCCCOc1ccc(N2CCN(S(=O)(=O)C3(C(=O)NO)CCN(c4ccc(C)nc4)CC3)CC2)cc1"
  pKi: 8.86
- Compound structure string: "O=C(NO)C1(S(=O)(=O)N2CCN(c3cnc(CCC(F)(F)C(F)(F)F)cn3)CC2)CCOCC1"
  pKi: 8.98
- Compound structure string: "CCCCCc1ccc(N2CCN(S(=O)(=O)C3(C(=O)NO)CCOCC3)CC2)nc1"
  pKi: 9.96
- Compound structure string: "CCCc1ccc(N2CCN(S(=O)(=O)C3(C(=O)NO)CCOCC3)CC2)nc1"
  pKi: 9.85
- Compound structure string: "CCCCOc1ccc(N2CCN(S(=O)(=O)C3(C(=O)NO)CCN(c4ccc(OC)c(OC)c4)CC3)CC2)cc1"
  pKi: 8.57
- Compound structure string: "O=C(NO)C1(S(=O)(=O)N2CCN(c3ccc4c(c3)OC(F)(F)C(F)(F)O4)CC2)CCOCC1"
  pKi: 7.30

----------
# Target entity: MMP-2 (Homo sapiens)
# Construct: made in house; host or cells: MMP-2-transfected p2AHT2 cells
# Protocol description: In vitro MMP inhibition, Ki determination (fluorogenic substrate II)
# Format: biochemical
# Condition context: value outside parentheses; read-out: MMP-2 Ki
The label 1 is reserved for Ki strictly under 1 nM; 0 covers values equal to or above it.

- Molecule: "O=C(NO)C1(S(=O)(=O)N2CCN(c3ncc(-c4ccc(F)cc4F)s3)CC2)CCOCC1"
  Qualitative label: 1
- Molecule: "CCCCOc1ccc(N2CCN(S(=O)(=O)C3(C(=O)NO)CCN(c4ccc(Cl)cc4)CC3)CC2)cc1"
  Qualitative label: 0
- Molecule: "O=C(NO)C1(S(=O)(=O)N2CCN(c3ccc(-c4ccccc4F)cn3)CC2)CCOCC1"
  Qualitative label: 1
- Molecule: "O=C(NO)C1(S(=O)(=O)N2CCN(c3ccc(OCC(F)(F)C(F)F)cc3)CC2)CCOCC1 [Example 336]"
  Qualitative label: 1
- Molecule: "CCCCOc1ccc(N2CCN(S(=O)(=O)C3(C(=O)NO)CCN(c4ccc(C(F)(F)F)cn4)CC3)CC2)cc1"
  Qualitative label: 0
- Molecule: "O=C(NO)C1(S(=O)(=O)N2CCC(COCC(F)(F)C(F)F)CC2)CCOCC1"
  Qualitative label: 0
- Molecule: "O=C(NO)C1(S(=O)(=O)N2CCC(c3ccc(Br)cn3)CC2)CCOCC1"
  Qualitative label: 1
- Molecule: "CCc1ccc(-c2ccc(C3CCN(S(=O)(=O)C4(C(=O)NO)CCOCC4)CC3)nc2)cc1"
  Qualitative label: 0
- Molecule: "O=C(NO)C1(S(=O)(=O)N2CCN(c3ncc(-c4ccc(C(F)(F)F)cc4)s3)CC2)CCOCC1"
  Qualitative label: 1
- Molecule: "CCCCc1ccc(N2CCN(S(=O)(=O)C3(C(=O)NO)CCN(CCOC)CC3)CC2)nc1"
  Qualitative label: 1
- Molecule: "O=C(NO)C1(S(=O)(=O)N2CCC(c3ccc(CCCC(F)(F)F)cc3)CC2)CCOCC1"
  Qualitative label: 0
- Molecule: "O=C(NO)C1(S(=O)(=O)N2CCC(c3ccc(-c4ccc(C(F)(F)F)cc4)cn3)CC2)CCOCC1"
  Qualitative label: 0
- Molecule: "CCCCOc1ccc(N2CCN(S(=O)(=O)C3(C(=O)NO)CCN(c4ccc(C)cc4)CC3)CC2)cc1"
  Qualitative label: 0
- Molecule: "CCCCc1ccc(C2CCN(S(=O)(=O)C3(C(=O)NO)CCOCC3)CC2)nc1 [Example 323]"
  Qualitative label: 1
- Molecule: "CCCCc1cnc(N2CCN(S(=O)(=O)C3(C(=O)NO)CCN(CCOC)CC3)CC2)nc1"
  Qualitative label: 0
- Molecule: "O=C(NO)C1(S(=O)(=O)N2CCC(c3ccc(OCCC(F)(F)F)cn3)CC2)CCOCC1"
  Qualitative label: 1
